# Read-out: Keratin 19 (KRT19), KRT19 (gene 3880)
# Assay Text: LTEA_HepaRG_KRT19: Life Technologies and Expression Analysis (LTEA) Assay for Keratin 19 (KRT19) using HepaRG (AID 2283512)
# Measurement Setup: mRNA level, 48 h; actives raise or lower the signal
The source made the active and inactive calls. Rule for the calls: active = hit-call score of the fitted dose curve at least 0.9, where 1 is the maximum; inactive = score below 0.9.
Outcome codes: active, inactive

• N#CN=C1SCCN1Cc1ccc(Cl)nc1 = inactive
• CCOc1nc(F)cc2nc(S(=O)(=O)Nc3c(Cl)cccc3Cl)nn12 = active
• CCCCC(O)(Cn1cncn1)c1ccc(Cl)cc1Cl (stereo not drawn) = inactive
• CCCCC(C#N)(Cn1cncn1)c1ccc(Cl)cc1 (stereo not drawn) = inactive
• COC(=O)NC(=S)Nc1ccccc1NC(=S)NC(=O)OC = inactive
• COP(=O)(OC)O/C(C)=C/C(=O)N(C)C = inactive
• Cc1cnc(C2=NC(C)(C(C)C)C(=O)N2)c(C(=O)O)c1 (stereo not drawn) = inactive
• CO/N=C(/C1=NOCCO1)c1ccccc1Oc1ncnc(Oc2ccccc2Cl)c1F = active

====

# Assay Text: APR_HepG2_CellLoss_72hr: Apredica 72-hour HepG2 Assay for Cell Loss (AID 2282915)
# Measurement Setup: high-content imaging
Active and inactive are the calls of the source. The calls were made as follows: active = hit-call score of the fitted dose curve at least 0.9, where 1 is the maximum; inactive = score below 0.9.
Outcome codes: active, inactive

- CCNP(=S)(OC)O/C(C)=C/C(=O)OC(C)C (stereo unspecified): inactive
- COCC(C)N(C(=O)CCl)c1c(C)csc1C (stereo unspecified): active
- CCNC(=O)NC(=O)C(C#N)=NOC: inactive
- CC1(C)CON(Cc2ccccc2Cl)C1=O: inactive
- O=P(O)(O)CCCl: inactive
- O=C1C2CC=CCC2C(=O)N1SC(Cl)(Cl)Cl (stereo unspecified): active
- N#CN=C1SCCN1Cc1ccc(Cl)nc1: inactive
- Cc1ccc(N=CN(C)C=Nc2ccc(C)cc2C)c(C)c1: inactive
- COc1cc(Cl)c(OC)cc1Cl: inactive
- CC(C)N1C(=O)N(c2ccccc2)CSC1=NC(C)(C)C: active
- CC1(C)C(C(=O)OC(C#N)c2cccc(Oc3ccccc3)c2)C1(C)C (stereo unspecified): active
- Nc1cnn(-c2ccccc2)c(=O)c1Cl: inactive
- CC(C)Oc1cccc(NC(=O)c2ccccc2C(F)(F)F)c1: active
- CCN(CC)C(=O)C(C)Oc1cccc2ccccc12 (stereo unspecified): active
- N#Cc1c[nH]cc1-c1cccc2c1OC(F)(F)O2: active
- C=CCOC(=O)C(C)(C)OC(=O)c1cc(-n2c(=O)cc(C(F)(F)F)n(C)c2=O)ccc1Cl: active

====

# Assay Text: ATG_BRE_CIS: Attagene CIS-FACTORIAL HepG2 Assay for human Bone Morphogenetic Protein (BMP) Response Element (BRE) (AID 2282933)
# Measurement Setup: HepG2 BMP response element reporter, Attagene transcription factor profiling; actives raise or lower the signal
Active and inactive are the calls of the source. Rule for the calls: active = hit-call score of the fitted dose curve at least 0.9, where 1 is the maximum; inactive = score below 0.9.
Outcome codes: active, inactive

- COP(=S)(OC)SCn1nnc2ccccc2c1=O: active
- CS(=O)(=O)c1cc(C(F)(F)F)ccc1C(=O)c1cnoc1C1CC1: inactive
- COCC(C)N(C(=O)CCl)c1c(C)csc1C (configuration not stated): inactive
- CCOc1nc(F)cc2nc(S(=O)(=O)Nc3c(Cl)cccc3Cl)nn12: inactive
- COC(=O)NC(=S)Nc1ccccc1NC(=S)NC(=O)OC: active
- CCSC(=O)N1CCCCCC1: inactive
- O=C(Nc1ccccc1-c1ccc(Cl)cc1)c1cccnc1Cl: inactive

====

# Assay Text: ATG_E_Box_CIS: Attagene CIS-FACTORIAL HepG2 Assay for human Enhancer Box (E-box) (AID 2282936)
# Measurement Setup: HepG2 E-box cis-reporter transcription, actives raise or lower the signal
The source made the active and inactive calls. How the source made its calls: active means hit-call score of the fitted dose curve at least 0.9, where 1 is the maximum; inactive means score below 0.9.
Outcome codes: t for active, f for inactive

* CNC(=O)Oc1cccc2ccccc12 | t
* CNC(=O)N(C)c1nnc(C(C)(C)C)s1 | f
* COP(=S)(OC)Oc1ccc([N+](=O)[O-])c(C)c1 | f
* CCCN(CC)CC1COC2(CCC(C(C)(C)C)CC2)O1 (stereo not given) | f
* COC(=O)c1c(C(F)F)nc(C(F)(F)F)c(C2=NCCS2)c1CC(C)C | t

====

# Assay Text: BSK_SAg_PBMCCytotoxicity: PBMC Cytotoxicity Assessment in the BioMAP Diversity Plus: SAg Assay (AID 2283093);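 note: PBMC viability measured as Alamar Blue reduction fluorescence at 546/580 nm; fitted both ways against DMSO so a hit may be loss or gain of signal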
# Measurement Setup: primary human HUVEC with PBMC
The source made the active and inactive calls. Rule for the calls: active = hit-call score of the fitted dose curve at least 0.9, where 1 is the maximum; inactive = score below 0.9.
Outcome codes: y = active, n = inactive

- Clc1nc(Cl)nc(Nc2ccccc2Cl)n1: n
- COc1cc(OC)nc(NC(=O)NS(=O)(=O)c2ncccc2OCC(F)(F)F)n1: n
- Nc1c(Cl)c(Cl)nc(C(=O)O)c1Cl: n
- Cn1c(-c2ccccc2)cc(-c2ccccc2)[n+]1C: y

====

# Assay Text: CCTE_Padilla_ZF_144hpf_TERATOSCORE: (Legacy) CCTE's 144 Hour Post-fertilization zebrafish Assay Teratoscore, Padilla Lab (AID 2283679);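 for AC50: zebrafish embryos with chorions exposed by immersion from 6-8 hpf to 5 dpf with daily renewal; teratogenicity score from eye scoring of death hatching and malformations at 144 hpf; higher score means more developmental defects relative to DMSO baseline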
Activity calls are given as the source filed them. How the source made its calls: active means hit-call score of the fitted dose curve at least 0.9, where 1 is the maximum; inactive means score below 0.9.
Parameter: AC50

* Clc1nc(Cl)nc(Nc2ccccc2Cl)n1 | 52 µM (active)
* COCC(=O)N(c1c(C)cccc1C)C(C)C(=O)OC (stereo not given) | inactive
* O=C(O)c1c(Cl)ccc2cc(Cl)cnc12 | inactive
* CC(C)Oc1cccc(NC(=O)c2ccccc2C(F)(F)F)c1 | 15.9 µM (active)
* CC1(C)C(C(=O)OC(C#N)c2cccc(Oc3ccccc3)c2)C1(C)C (stereo not given) | 1.44 µM (active)

====

# Assay Text: BSK_CASM3C_Proliferation: Cell Proliferation Assessment in the BioMAP Diversity Plus: CASM3C Assay (AID 2283047);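 note: sulforhodamine B total protein stain as relative cell number at 560 nm; sub-confluent cells exposed 48 h before staining; fitted both ways against DMSO so gain or loss of cell number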
# Measurement Setup: primary human coronary artery smooth muscle cells
Active and inactive are the calls of the source. Rule for the calls: active = hit-call score of the fitted dose curve at least 0.9, where 1 is the maximum; inactive = score below 0.9.
Outcome codes: active, inactive

• CCCCC(C#N)(Cn1cncn1)c1ccc(Cl)cc1 (centres undefined) = inactive
• COCC(C)N(C(=O)CCl)c1c(C)csc1C (centres undefined) = inactive
• COP(=S)(OC)Oc1ccc([N+](=O)[O-])c(C)c1 = inactive
• COCC(=O)N(c1c(C)cccc1C)C(C)C(=O)OC (centres undefined) = inactive
• Cn1c(-c2ccccc2)cc(-c2ccccc2)[n+]1C = inactive
• CC1(C)C(C=C(Cl)Cl)C1C(=O)OC(C#N)c1cccc(Oc2ccccc2)c1 (centres undefined) = inactive
• CCOC(=O)C(C)OC(=O)c1cc(Oc2ccc(C(F)(F)F)cc2Cl)ccc1[N+](=O)[O-] (centres undefined) = inactive
• Cc1nc(N(C)C)nc(OC(=O)N(C)C)c1C = inactive
• CN/C(=N\[N+](=O)[O-])NCc1cnc(Cl)s1 = inactive
• N#Cc1c[nH]cc1-c1cccc2c1OC(F)(F)O2 = active
• Cc1c(COC(=O)[C@@H]2[C@H](/C=C(\Cl)C(F)(F)F)C2(C)C)cccc1-c1ccccc1 = inactive
• O=c1n(Cl)c(=O)n(Cl)c(=O)n1Cl = inactive
• Nc1c(Cl)c(Cl)nc(C(=O)O)c1Cl = inactive
• CCC(C)n1c(=O)[nH]c(C)c(Br)c1=O (centres undefined) = inactive
• CCNP(=S)(OC)O/C(C)=C/C(=O)OC(C)C (centres undefined) = inactive
• CCCCOCN(C(=O)CCl)c1c(CC)cccc1CC = active
• CCCN(CC)CC1COC2(CCC(C(C)(C)C)CC2)O1 (centres undefined) = active
• Clc1nc(Cl)nc(Nc2ccccc2Cl)n1 = inactive
• CC1(C)C(C(=O)OC(C#N)c2cccc(Oc3ccccc3)c2)C1(C)C (centres undefined) = active
• CC(C)=CC1C(C(=O)OCc2coc(Cc3ccccc3)c2)C1(C)C (centres undefined) = active
• COC(=O)NC(=S)Nc1ccccc1NC(=S)NC(=O)OC = inactive
• CCOc1nc(F)cc2nc(S(=O)(=O)Nc3c(Cl)cccc3Cl)nn12 = inactive
• CS(=O)(=O)c1ccc(C(=O)C2C(=O)CCCC2=O)c([N+](=O)[O-])c1 = inactive
• CC1(C)CCC(=Cc2ccc(Cl)cc2)C1(O)Cn1cncn1 (centres undefined) = inactive

====

# Read-out: ABC Transporter (ABCB11), ABCB11 (gene 8647)
# Assay Text: LTEA_HepaRG_ABCB11: Life Technologies and Expression Analysis (LTEA) Assay for ABC Transporter (ABCB11) using HepaRG (AID 2283463)
# Measurement Setup: mRNA level, 48 h; actives raise or lower the signal
The source made the active and inactive calls. Rule for the calls: active = hit-call score of the fitted dose curve at least 0.9, where 1 is the maximum; inactive = score below 0.9.
Parameter: outcome

- Nc1c(Cl)c(F)nc(OCC(=O)O)c1Cl: inactive
- COCc1cnc(C2=NC(C)(C(C)C)C(=O)N2)c(C(=O)O)c1 (stereo not drawn): inactive
- Cc1cnc(C2=NC(C)(C(C)C)C(=O)N2)c(C(=O)O)c1 (stereo not drawn): inactive

====

In this section, each of the compounds is paired with its reported AC50.
# Read-out: Cytochrome P450 (CYP2B6), CYP2B6 (gene 1555)
# Assay Text: LTEA_HepaRG_CYP2B6: Life Technologies and Expression Analysis (LTEA) Assay for Cytochrome P450 (CYP2B6) using HepaRG (AID 2283481)
# Measurement Setup: mRNA level, 48 h; actives raise or lower the signal
Activity calls are given as the source filed them. Rule for the calls: active = hit-call score of the fitted dose curve at least 0.9, where 1 is the maximum; inactive = score below 0.9.
Parameter: AC50

- Cc1nc(N(C)C)nc(OC(=O)N(C)C)c1C: 8.42 µM (active)
- Clc1nc(Cl)nc(Nc2ccccc2Cl)n1: 34.8 µM (active)
- COCC(C)N(C(=O)CCl)c1c(C)csc1C (stereo not drawn): 2.05 µM (active)
- COc1cc(OC)nc(NC(=O)NS(=O)(=O)c2ncccc2OCC(F)(F)F)n1: 23.8 µM (active)
- Clc1cccc(C(Cl)(Cl)Cl)n1: 2.9 µM (active)
- CCCN(CC)CC1COC2(CCC(C(C)(C)C)CC2)O1 (stereo not drawn): 50 µM (active)
- CC1(C)C(C=C(Cl)Cl)C1C(=O)OC(C#N)c1cccc(Oc2ccccc2)c1 (stereo not drawn): 9.35 µM (active)

Data provenance is PubChem BioAssay (EPA / NIEHS).
